# assayedTarget: MMP-9 (Homo sapiens, UniProt P14780)
# Construct: purified from the culture medium
# Sequence (P14780 107-707 limits assumed): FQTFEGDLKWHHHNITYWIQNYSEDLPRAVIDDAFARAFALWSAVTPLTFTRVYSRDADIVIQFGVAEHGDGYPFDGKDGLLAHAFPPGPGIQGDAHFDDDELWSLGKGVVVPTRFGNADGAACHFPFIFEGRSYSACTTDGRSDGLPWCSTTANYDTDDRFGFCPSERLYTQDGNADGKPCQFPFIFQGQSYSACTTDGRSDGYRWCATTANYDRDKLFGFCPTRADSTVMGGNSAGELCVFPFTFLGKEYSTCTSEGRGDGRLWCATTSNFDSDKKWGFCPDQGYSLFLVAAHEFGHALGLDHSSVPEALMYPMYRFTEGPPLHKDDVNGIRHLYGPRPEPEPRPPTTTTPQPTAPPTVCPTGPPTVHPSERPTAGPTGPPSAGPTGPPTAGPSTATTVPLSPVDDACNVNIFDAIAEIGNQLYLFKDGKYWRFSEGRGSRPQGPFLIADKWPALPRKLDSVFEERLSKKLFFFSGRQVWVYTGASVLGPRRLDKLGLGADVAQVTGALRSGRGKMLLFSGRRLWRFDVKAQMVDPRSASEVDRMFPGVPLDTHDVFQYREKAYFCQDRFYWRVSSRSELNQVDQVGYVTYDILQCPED
# methodDescription: Assay for inhibitory activities on MMP-9 (fluorogenic MOCAc peptide substrate)
# conditionDetails: MMP-9 purified from human fibrosarcoma HT1080 cells, activated by TPCK-Trypsin
Below is a list of entries, each paired with its recorded log10 of IC50 value.
observationType: log10 of IC50 (log10 of the value in nM)

compound="COc1ccc2[nH]cc(C[C@@H](NS(=O)(=O)c3ccc(C#Cc4ccc(C)cc4)s3)C(=O)O)c2c1 [Compound A-2]" measuredvalue=1.19
compound="O=C(O)[C@H](Cc1c[nH]c2ccc(F)cc12)NS(=O)(=O)c1ccc(-c2nnn(-c3ccccc3)n2)cc1 [Compound A-12]" measuredvalue=3.15
compound="Cc1ccc(C#Cc2ccc(S(=O)(=O)N[C@H](Cc3c[nH]c4ccc(O)cc34)C(=O)O)s2)cc1 [Compound A-1]" measuredvalue=0.39
compound="COc1cccc2[nH]cc(C[C@@H](NS(=O)(=O)c3ccc(C#Cc4ccc(C)cc4)s3)C(=O)O)c12 [Compound A-3]" measuredvalue=2.24
compound="Cc1ccc(C#Cc2ccc(S(=O)(=O)N[C@@H](Cc3c[nH]c4ccc(F)cc34)C(=O)O)s2)cc1 [Compound A-6]" measuredvalue=2.93
compound="COc1ccc2[nH]cc(C[C@@H](NS(=O)(=O)c3ccc(-c4ccc(N(C)C)cc4)s3)C(=O)O)c2c1 [Compound A-8]" measuredvalue=0.82
compound="COc1ccc(-n2nnc(-c3ccc(S(=O)(=O)N[C@H](Cc4c[nH]c5ccc(OC)cc45)C(=O)O)cc3)n2)cc1 [Compound A-11]" measuredvalue=1.20
